- tested-on: UniProtKB Q7ZJM1
- Sequence (Q7ZJM1 whole entry): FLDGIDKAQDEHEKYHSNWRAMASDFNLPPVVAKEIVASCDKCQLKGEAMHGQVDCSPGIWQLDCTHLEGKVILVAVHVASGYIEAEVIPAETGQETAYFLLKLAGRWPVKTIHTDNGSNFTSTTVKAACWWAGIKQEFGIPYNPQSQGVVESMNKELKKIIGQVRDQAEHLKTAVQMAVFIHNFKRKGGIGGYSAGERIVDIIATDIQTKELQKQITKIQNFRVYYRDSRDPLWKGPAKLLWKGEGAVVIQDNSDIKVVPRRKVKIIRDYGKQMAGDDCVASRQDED
- assay-comment: Inhibitory concentration of compound against 3'-processing of HIV-1 integrase in experiment 2
Consider the following compounds and their measured log10(IC50) readings.
Friendly reminder: values = log10 of IC50, unit µM.

Some solved entries appear below for comparison.
| compound | log10(IC50) |
| --- | --- |
| O=[N+]([O-])c1cccc(/C=N/CCN2CCN(CC/N=C/c3cccc([N+](=O)[O-])c3O)C2c2cccc([N+](=O)[O-])c2O)c1O | 1.78 |
| CCN(CC)c1ccc(Cc2ccc(N(C)C)c(Cl)c2)cc1 | 1.90 |
| CCOC(=O)c1cnc(NCCCNc2ncc(C(=O)OCC)c(=O)[nH]2)[nH]c1=O | 1.06 |
| O=C(NC(Cc1ccc(O)c(O)c1)C(=O)OCc1ccccc1)c1ccc([N+](=O)[O-])cc1 (configuration not stated) | 2.40 |
| O=C(Nc1ccc(C(=O)O)c(O)c1)c1ccc(C(=O)Nc2ccc(O)c(C(=O)O)c2)cc1 | 1.40 |
| O=C(O)c1cnc2c(ccc3ncc(C(=O)O)c(O)c32)c1O | 0.79 |
| COC(=O)c1c(C)cc(OC(=O)c2c(C)cc(O)c(C=O)c2O)c(C)c1O [ATRANORIN] | 1.80 |
| O=C(c1ccc(O)cc1O)C1C(c2ccc(O)cc2)OC(c2ccc(O)cc2)C1C(=O)c1ccc(O)cc1O (configuration not stated) | 2.23 |
| O=C(/C=C/c1ccc(O)c(O)c1)O[C@H]1[C@H](O)C[C@](O)(C(=O)O)C[C@H]1OC(=O)/C=C/c1ccc(O)c(O)c1 | -0.15 |
| C[C@@](O)(/C=C/[C@H]1CC=CC(=O)O1)[C@@H](C[C@@H](O)C=CC=C/C=C/CO)OP(=O)(O)O [FOSTRIECIN] | 2.07 |

Next:
// query Please tell me: log10(IC50) of O=C(O)c1cc(/N=N\c2ccccc2C(=O)O)ccc1O , system UniProtKB Q7ZJM1?
// result 2.32

Hello, the source for this data is ChEMBL document CHEMBL1129975, in case you need it.
